These data points were gathered from patent US9247759B2.

# Measurement Target: UniProtKB Q9NYW2
# Sequence (Q9NYW2 whole entry): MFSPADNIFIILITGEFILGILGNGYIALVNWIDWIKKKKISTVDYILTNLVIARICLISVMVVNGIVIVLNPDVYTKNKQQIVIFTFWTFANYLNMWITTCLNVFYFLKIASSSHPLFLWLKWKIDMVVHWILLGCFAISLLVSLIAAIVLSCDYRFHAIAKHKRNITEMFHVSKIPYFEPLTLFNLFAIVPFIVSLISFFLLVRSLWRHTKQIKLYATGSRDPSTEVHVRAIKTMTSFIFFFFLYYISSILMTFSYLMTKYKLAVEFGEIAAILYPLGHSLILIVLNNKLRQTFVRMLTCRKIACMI
# Method: hT2R8 antagonist high-throughput FLIPR assay, stable cell line with G16g44, agonist andrographolide
# Format: cell-based
# Test Settings: read-out: IC50 on hT2R8 bitter receptor
Measure: IC50 (nM)
Record the value in nM, omitting the unit from your answer.

Challenge: Recall and state the measured IC50 for Cc1noc(C)c1Cn1cc(N2C(=O)N(Cc3cccc(O)c3)C3(CC3)C2=O)cn1 [Example 12-15] .
Response given: 20

Further cases:
Challenge: Look up IC50 of COc1cc(CC(=O)Nc2cnn(Cc3c(C)noc3C)c2)cc(OC)c1O [Example 4-4] and report it.
Response given: 460

Challenge: Identify IC50 associated with the molecule Cc1noc(C)c1Cn1cc(N2C(=O)[C@@H]3Cc4ccc(O)cc4CN3C2=O)cn1 [Example 13-1]
Response given: 20

----------
# Measurement Target: hT2R10 (Homo sapiens (Human))
# Sequence (Q9NYW0 whole entry): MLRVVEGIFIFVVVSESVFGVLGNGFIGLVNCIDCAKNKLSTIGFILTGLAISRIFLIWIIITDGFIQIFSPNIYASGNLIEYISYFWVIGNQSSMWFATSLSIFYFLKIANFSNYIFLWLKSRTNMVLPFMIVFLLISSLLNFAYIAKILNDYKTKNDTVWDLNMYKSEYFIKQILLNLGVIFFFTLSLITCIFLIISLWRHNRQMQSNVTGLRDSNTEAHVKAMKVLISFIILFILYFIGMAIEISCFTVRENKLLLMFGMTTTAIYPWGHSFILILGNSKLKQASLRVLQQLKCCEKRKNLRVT
# Method: hT2R panel inhibition, transient HEK293 G16g44, agonist Strychnine 50 μM
# Format: cell-based
# Test Settings: HEK293, read-out: screening result against bitter receptor 10, compound at 25 μM; receptor activated to EC80 with the corresponding agonist
# Description: Specifically, in order to evaluate the inhibitory selectivity of the Compound C compound, this compound was tested against 22 human T2Rs which were deorphaned by Senomyx. These receptors and the bitter ligands that activate these human T2Rs are reported in earlier patent applications which are incorporated by reference herein. These 22 human T2Rs are hT2R1, 3, 4, 5, 7, 8, 9, 10, 13, 14, 16, 44, 51, 54, 55, 61, 63, 64, 65, 67, 71 and 75. […]
Measure: inhibition at 25 µM

Challenge: Answer with the recorded inhibition at 25 µM for the compound listed here: CSc1ccc(CN(Cc2ccccc2)S(=O)(=O)c2ccc(C(=O)O)cc2)cc1
Response given: 20 to 40%

Challenge: Consider the compound O=C(O)c1ccc(S(=O)(=O)N(Cc2ccccc2)Cc2ccco2)cc1 and give its recorded inhibition at 25 µM.
Response given: 20 to 40%

Challenge: Please supply the value of reported inhibition at 25 µM for the item Cc1ccc(S(=O)(=O)N(Cc2ccccc2)CC2CCC(C(=O)O)CC2)cc1 (stereo not drawn)
Response given: 40 to 60%

Challenge: Quickly give me recorded inhibition at 25 µM for COc1ccc(CN(Cc2ccccc2)S(=O)(=O)c2ccc(C(=O)O)cc2)cn1
Response given: 40 to 60%

Challenge: Recall and state the measured inhibition at 25 µM for O=C(O)C1CCC(CN(Cc2ccc(F)cc2)S(=O)(=O)c2cccs2)CC1 (stereo not drawn) .
Response given: 20 to 40%

Challenge: Check the records and state inhibition at 25 µM for COc1ccc(CN(Cc2ccc(F)c(OC)c2)S(=O)(=O)c2ccc(C(=O)O)cc2)cc1
Response given: 20 to 40%

Challenge: Identify the reported inhibition at 25 µM for the following entry. COc1ccc(CN(Cc2ccccc2Cl)S(=O)(=O)c2ccc(C(=O)O)cc2)cc1
Response given: 20 to 40%

Challenge: Tell me inhibition at 25 µM reported for COc1ccc(CN(Cc2ccccc2)S(=O)(=O)c2ccc(C(=O)O)cc2)cc1C
Response given: 60 to 80%

New cases:
Challenge: Respond only with inhibition at 25 µM recorded for COc1cccc(CN(Cc2ccc(C(=O)O)cc2)S(=O)(=O)c2ccccc2)c1
Response given: 60 to 80%

Challenge: Indicate the recorded inhibition at 25 µM value for this compound: Cc1ccccc1CN(Cc1ccccc1)S(=O)(=O)c1ccc(C(=O)O)cc1
Response given: 20 to 40%
